- Assay overview: Human SAD PK
- Assay type: in vivo
- Run parameters: human, plasma, oral, 100 mg, cohort 2, 100 mg, mean ± SD, n = 6, read-out: AUC0-10 h
- Procedure: Preferred lipid-based formulation based on U28 provided adequate exposure in human. The optimal PK exposure to engage integrins and improve adjuvant activity is systemic plasma exposure of AUC0-t between about 50 ng/mL/hr and about 100 ng/mL/hr.
Assay endpoint: AUC(0-t) (ng·h/mL)
Entry rule: numbers only, all in ng·h/mL.

Reported AUC(0-t) ( O=C(OCCOCCOCCOC(=O)N(Cc1cccs1)Cc1cccs1)N(Cc1cccs1)Cc1cccs1 [Form 7HP349] ) = 115

----------
- Assay overview: Human SAD PK
- Assay type: in vivo
- Run parameters: plasma, oral, cohort 1, 50 mg, median, n = 6
Assay endpoint: Tmax (h)
Number only, in h; omit the unit.

Reported Tmax for O=C(OCCOCCOCCOC(=O)N(Cc1cccs1)Cc1cccs1)N(Cc1cccs1)Cc1cccs1 [Form 7HP349] was 2.5

----------
- Assay overview: Human SAD PK
- Type: in vivo
- Run parameters: plasma, oral, cohort 2, 100 mg, mean ± SD, n = 6
Assay endpoint: half-life (h)
# unit: h | format: bare number

Form: molecule = O=C(OCCOCCOCCOC(=O)N(Cc1cccs1)Cc1cccs1)N(Cc1cccs1)Cc1cccs1 [Form 7HP349] ; half-life = 20.6

----------
- Assay overview: Human SAD PK
- Type: in vivo
- Run parameters: human, plasma, oral, 300 mg, cohort 4, 300 mg, mean ± SD, n = 6, read-out: AUC0-10 h
Assay endpoint: AUC(0-t) (ng·h/mL)
Record the value in ng·h/mL, omitting the unit from your answer.

The compound identified as O=C(OCCOCCOCCOC(=O)N(Cc1cccs1)Cc1cccs1)N(Cc1cccs1)Cc1cccs1 [Form 7HP349] registered its AUC(0-t) at 938

----------
- Assay overview: Human SAD PK
- Type: in vivo
- Run parameters: plasma, oral, cohort 1, 50 mg, mean ± SD, n = 6
Assay endpoint: half-life (h)
Return type: number; implicit unit h.

half-life reported for this compound O=C(OCCOCCOCCOC(=O)N(Cc1cccs1)Cc1cccs1)N(Cc1cccs1)Cc1cccs1 [Form 7HP349] : 8.9

----------
- Assay overview: Human SAD PK
- Type: in vivo
- Run parameters: human, plasma, oral, 300 mg, cohort 4, 300 mg, mean ± SD, n = 6, read-out: AUClast
Assay endpoint: AUC(0-t) (µg·h/mL)
Entry rule: numbers only, all in µg·h/mL.

Reported AUC(0-t) ( O=C(OCCOCCOCCOC(=O)N(Cc1cccs1)Cc1cccs1)N(Cc1cccs1)Cc1cccs1 [Form 7HP349] ) = 1.35

----------
- Assay overview: Human SAD PK
- Type: in vivo
- Run parameters: plasma, oral, cohort 3, 200 mg, mean ± SD, n = 6
Assay endpoint: Cmax (ng/mL)
Your answer is read as ng/mL, so omit the unit and give the number.

The recorded Cmax for entry O=C(OCCOCCOCCOC(=O)N(Cc1cccs1)Cc1cccs1)N(Cc1cccs1)Cc1cccs1 [Form 7HP349] equals 166

----------
- Assay overview: Human SAD PK
- Assay type: in vivo
- Run parameters: plasma, oral, cohort 2, 100 mg, mean ± SD, n = 6
Assay endpoint: Cmax (ng/mL)
Use ng/mL as the unit, but write only the number.

O=C(OCCOCCOCCOC(=O)N(Cc1cccs1)Cc1cccs1)N(Cc1cccs1)Cc1cccs1 [Form 7HP349] yielded Cmax of 36.1
